Hi there, I'd appreciate the recorded selectivity ratio for every entry that follows.
experiment: Selectivity index, ratio of CC50 for human MT4 cells to EC50 for NNRTI-resistant HIV1 A17 expressing reverse transcriptase K103N and Y181C mutant; assay type: toxicity, cell-based; conditions: read-out: Ratio CC50/EC50

Solved entries (count: 3):
1) O=c1[nH]c(=O)n(COCc2ccccc2)c(Cc2ccccc2)c1Br :: < 6.7
2) O=c1[nH]c(=O)n(COCc2ccccc2)c(Cc2ccccc2)c1I :: < 7
3) CCOCn1c(Cc2ccccc2)c(Br)c(=O)[nH]c1=O :: < 15.5

List the reported selectivity ratio of each compound below.
1. CN(C)c1c(Cc2ccccc2)n(COCc2ccccc2)c(=O)[nH]c1=O
2. CC(C)c1c(Cc2ccccc2)n(COCc2ccccc2)c(=O)[nH]c1=O
3. CCOCn1c(Cc2cc(F)cc(F)c2)c(I)c(=O)[nH]c1=O
4. CCOCn1c(Cc2ccccc2)c(N(C)C)c(=O)[nH]c1=O

Key:
["< 9", "< 6.6", "< 30", "< 16.6"]
